# Ca2+ response (delta ratio), P58H/N264H per record follows
biological target: mGlu1 P58H/N264H mutant (Rattus norvegicus, UniProt P23385, N264H/P58H); construct: expressed in transfected cells; host or cells: HEK293; assay: Fura-2 Ca2+ imaging in HEK293 cells expressing mGlu1 P58H/N264H; type: cell-based; details: Fig.1e
Sequence (P23385 19-1199 P58H/N264H): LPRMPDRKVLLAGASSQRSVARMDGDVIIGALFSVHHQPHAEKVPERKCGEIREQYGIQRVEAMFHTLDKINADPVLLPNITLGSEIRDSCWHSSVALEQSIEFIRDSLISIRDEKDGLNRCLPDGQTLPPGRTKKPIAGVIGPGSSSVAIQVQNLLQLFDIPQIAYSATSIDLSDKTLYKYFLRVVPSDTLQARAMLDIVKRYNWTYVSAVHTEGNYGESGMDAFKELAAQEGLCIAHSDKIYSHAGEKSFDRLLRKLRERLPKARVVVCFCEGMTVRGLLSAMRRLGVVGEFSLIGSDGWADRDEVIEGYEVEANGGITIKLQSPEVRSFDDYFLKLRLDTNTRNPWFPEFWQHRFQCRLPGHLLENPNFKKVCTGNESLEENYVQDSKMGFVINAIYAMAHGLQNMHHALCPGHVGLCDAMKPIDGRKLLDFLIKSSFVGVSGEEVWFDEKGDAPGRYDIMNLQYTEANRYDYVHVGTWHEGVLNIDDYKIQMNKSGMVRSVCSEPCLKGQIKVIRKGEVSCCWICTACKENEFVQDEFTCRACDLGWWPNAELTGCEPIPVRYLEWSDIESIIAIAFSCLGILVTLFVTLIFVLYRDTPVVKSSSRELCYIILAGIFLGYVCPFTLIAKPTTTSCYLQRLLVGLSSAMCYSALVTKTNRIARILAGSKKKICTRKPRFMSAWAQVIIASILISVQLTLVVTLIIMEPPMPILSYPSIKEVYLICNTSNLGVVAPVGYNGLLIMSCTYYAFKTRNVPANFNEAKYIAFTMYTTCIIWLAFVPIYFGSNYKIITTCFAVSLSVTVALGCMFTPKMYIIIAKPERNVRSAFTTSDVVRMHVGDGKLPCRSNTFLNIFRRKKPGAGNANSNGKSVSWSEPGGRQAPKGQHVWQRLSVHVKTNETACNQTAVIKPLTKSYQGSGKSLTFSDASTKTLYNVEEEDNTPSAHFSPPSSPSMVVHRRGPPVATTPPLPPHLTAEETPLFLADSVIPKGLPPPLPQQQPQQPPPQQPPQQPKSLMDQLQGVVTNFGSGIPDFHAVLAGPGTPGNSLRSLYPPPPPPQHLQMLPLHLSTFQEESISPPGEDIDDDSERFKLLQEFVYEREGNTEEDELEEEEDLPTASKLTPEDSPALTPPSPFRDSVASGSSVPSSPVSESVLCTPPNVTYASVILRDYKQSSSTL
QUANTITY KIND: Ca2+ response (delta ratio), P58H/N264H

ENTRY SMILES: [Cl][Cu][Cl]
MEAS VALUE: -0.01421
--
ENTRY SMILES: [Cl][Ni][Cl]
MEAS VALUE: 0.05353
--
ENTRY SMILES: [Cl][Cd][Cl]
MEAS VALUE: -0.005715
--
ENTRY SMILES: [Cl-].[Cl-].[Zn+2]
MEAS VALUE: -0.00161

###

molecular target: mGlu1(N264H) mutant (Rattus norvegicus, UniProt P23385, N264H); construct: expressed in transfected cells; host or cells: HEK293; experiment: Fura-2 Ca2+ imaging in HEK293 cells expressing mGlu1(N264H); assay type: cell-based; details: 3 μM Pd(bpy) derivative
Sequence (P23385 19-1199 N264H): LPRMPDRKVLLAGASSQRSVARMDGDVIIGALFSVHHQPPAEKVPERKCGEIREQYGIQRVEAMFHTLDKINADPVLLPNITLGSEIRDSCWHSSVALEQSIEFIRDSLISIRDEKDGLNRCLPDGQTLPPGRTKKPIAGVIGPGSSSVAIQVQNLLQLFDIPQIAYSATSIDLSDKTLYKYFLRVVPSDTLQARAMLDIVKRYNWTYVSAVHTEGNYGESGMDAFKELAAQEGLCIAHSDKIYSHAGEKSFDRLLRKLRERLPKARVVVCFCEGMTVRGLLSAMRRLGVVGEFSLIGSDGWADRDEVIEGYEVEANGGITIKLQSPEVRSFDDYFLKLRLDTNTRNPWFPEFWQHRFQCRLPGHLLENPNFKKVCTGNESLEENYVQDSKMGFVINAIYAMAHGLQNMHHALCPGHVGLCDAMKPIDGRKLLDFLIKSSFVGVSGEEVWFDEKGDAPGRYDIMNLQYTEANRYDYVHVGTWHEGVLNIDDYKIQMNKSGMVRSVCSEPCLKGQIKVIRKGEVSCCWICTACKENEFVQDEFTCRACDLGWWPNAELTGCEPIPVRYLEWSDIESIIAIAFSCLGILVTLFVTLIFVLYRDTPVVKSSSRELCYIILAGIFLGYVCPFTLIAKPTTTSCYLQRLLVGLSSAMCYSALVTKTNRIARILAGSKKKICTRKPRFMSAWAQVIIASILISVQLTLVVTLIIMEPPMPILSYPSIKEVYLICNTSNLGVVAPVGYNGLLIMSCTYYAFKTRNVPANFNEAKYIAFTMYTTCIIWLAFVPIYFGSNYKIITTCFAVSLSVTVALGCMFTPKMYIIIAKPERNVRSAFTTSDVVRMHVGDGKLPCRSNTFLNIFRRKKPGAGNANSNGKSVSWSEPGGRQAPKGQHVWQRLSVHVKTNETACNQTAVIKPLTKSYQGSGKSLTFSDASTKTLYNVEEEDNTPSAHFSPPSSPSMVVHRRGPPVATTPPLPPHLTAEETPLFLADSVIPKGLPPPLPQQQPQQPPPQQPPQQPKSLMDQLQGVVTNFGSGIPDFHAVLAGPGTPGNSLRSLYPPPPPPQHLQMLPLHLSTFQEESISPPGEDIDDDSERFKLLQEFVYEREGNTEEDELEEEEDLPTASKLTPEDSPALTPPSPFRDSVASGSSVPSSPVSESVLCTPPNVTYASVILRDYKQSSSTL
QUANTITY KIND: Receptor activation (Ca2+ response, Δratio)

MOLECULE: OCc1ccnc(-c2cc(CO)ccn2)c1.[Cl][Pd][Cl] [Pd(OH-bpy)]
TARGET: mGlu1(N264H) mutant (Rattus norvegicus, UniProt P23385, N264H)
MEAS VALUE: successfully activated
//
MOLECULE: Cc1ccnc(-c2cc(COCCCS(=O)(=O)[O-])ccn2)c1.[Cl][Pd][Cl].[Na+] [Pd(sulfo-bpy)]
TARGET: mGlu1(N264H) mutant (Rattus norvegicus, UniProt P23385, N264H)
MEAS VALUE: successfully activated

###

biological target: mGlu1 E60H/N264H mutant (Rattus norvegicus, UniProt P23385, E60H/N264H); construct: expressed in transfected cells; host or cells: HEK293; assay: Fura-2 Ca2+ imaging in HEK293 cells expressing mGlu1 E60H/N264H; assay type: cell-based; settings: Fig.1e
Sequence (P23385 19-1199 E60H/N264H): as the sequence (P23385 19-1199 N264H) above, with E42H counted along it
# Ca2+ response (delta ratio), E60H/N264H per record follows

COMPOUND: [Cl][Cd][Cl] [CdCl2]
Ca2+ response (delta ratio), E60H/N264H: -0.01186
//
COMPOUND: [Cl][Cu][Cl] [CuCl2]
Ca2+ response (delta ratio), E60H/N264H: -0.0006131
//
COMPOUND: [Cl][Ni][Cl] [NiCl2]
Ca2+ response (delta ratio), E60H/N264H: -0.01792
//
COMPOUND: [Cl-].[Cl-].[Zn+2] [ZnCl2]
Ca2+ response (delta ratio), E60H/N264H: -0.009416

###

target: mGlu1(N264H) mutant (Rattus norvegicus, UniProt P23385, N264H); construct: expressed in transfected cells; host or cells: HEK293; assay: Fura-2 Ca2+ imaging in HEK293 cells expressing mGlu1(N264H); assay type: cell-based; conditions: 10 µM LY367385, 1 µM FITM, 10 µM YM254890 or 1 µM U73122
Starred links: 1 amine or outer side, 2 acyl side, 3 side chain; linkers in the order of their positions; H or OH if unused. Positions of bridges follow the written chain, without caps; N, C: chain ends. Non-standard residues stand in square brackets, D forms with d. Residues, ends and D or L forms follow the SMILES beside them. X1 = CC(=O)NC(C(=O)OC(C(C)C)C(N[*:1])C(=O)[*:2])C(O)C(C)C; PhLac = O=C(O)[CH](O)Cc1ccccc1; NMeT = CN[CH](C(=O)O)[CH](C)O; NMeA = CN[CH](C)C(=O)O; NMeDha = C=C(NC)C(=O)O
QUANTITY KIND: Effect of pre-treated inhibitor on 10 µM Pd(bpy)-induced Ca2+ responses

COMPOUND: Cc1cc(C(=O)O)ccc1[C@H](N)C(=O)O [LY367385, reference compound]
MEAS VALUE: inhibited
--
COMPOUND: CC(C)Nc1cc(-c2csc(N(C)C(=O)c3ccc(F)cc3)n2)ncn1
MEAS VALUE: inhibited
--
COMPOUND: COc1ccc2c(c1)CC[C@@H]1[C@@H]2CC[C@]2(C)[C@@H](NCCCCCCN3C(=O)C=CC3=O)CC[C@@H]12 [U73122, reference compound]
MEAS VALUE: suppressed
--
COMPOUND: C=C1C(=O)NC(C)C(=O)N(C)C(C)C(=O)NC(C(OC(=O)C(NC(C)=O)C(O)C(C)C)C(C)C)C(=O)N(C)C(C(C)OC)C(=O)OC(C)C(NC(C)=O)C(=O)OC(Cc2ccccc2)C(=O)N1C (stereo not shown) [YM-254890, reference compound] (Ac-T[PhLac][NMeDha]A[NMeA][X1][NMeT](Me); ester 1-C; configuration not given here)
MEAS VALUE: suppressed

###

biological target: mGlu1 E60H/N264H mutant (Rattus norvegicus, UniProt P23385, E60H/N264H); construct: expressed in transfected cells; host or cells: HEK293; experiment: Fura-2 Ca2+ imaging in HEK293 cells expressing mGlu1 E60H/N264H; assay type: cell-based; details: 10 μM metal ion or metal complex
QUANTITY KIND: Receptor activation ([Ca2+]i change, Δratio)

COMPOUND: [Ni+2] [Ni^2+, reference compound]
MEAS VALUE: failed to activate
//
COMPOUND: [Zn+2] [Zn^2+, reference compound]
MEAS VALUE: failed to activate
//
COMPOUND: [Cd+2] [Cd^2+, reference compound]
MEAS VALUE: failed to activate
//
COMPOUND: [Cu+2] [Cu^2+, reference compound]
MEAS VALUE: failed to activate

###

test system: HEK293 cells, vector control; test: Fura-2 Ca2+ imaging in HEK293 cells transfected with control vector (Vec); assay type: cell-based; settings: Fig.1e
QUANTITY KIND: Ca2+ response (delta ratio), Vec

ENTRY SMILES: [Cl][Ni][Cl]
MEAS VALUE: -0.006595
//
ENTRY SMILES: [Cl-].[Cl-].[Zn+2]
MEAS VALUE: -0.01075
//
ENTRY SMILES: [Cl][Cd][Cl]
MEAS VALUE: -0.03216
//
ENTRY SMILES: [Cl][Cu][Cl]
MEAS VALUE: 0.01757

###

# Ca2+ response (delta ratio), A59H/A265H per record follows
biological target: mGlu1 A59H/A265H mutant (Rattus norvegicus, UniProt P23385, A265H/A59H); construct: expressed in transfected cells; host or cells: HEK293; test: Fura-2 Ca2+ imaging in HEK293 cells expressing mGlu1 A59H/A265H; assay type: cell-based; conditions: Fig.1e
Sequence (P23385 19-1199 A59H/A265H): as the sequence (P23385 19-1199 P58H/N264H) above, with H40P, A41H, H246N, A247H counted along it
QUANTITY KIND: Ca2+ response (delta ratio), A59H/A265H

ENTRY SMILES: [Cl][Cu][Cl]
QUANTITY KIND: Ca2+ response (delta ratio), A59H/A265H
MEAS VALUE: -0.0005365

ENTRY SMILES: [Cl][Ni][Cl]
QUANTITY KIND: Ca2+ response (delta ratio), A59H/A265H
MEAS VALUE: 0.01054

ENTRY SMILES: [Cl][Cd][Cl]
QUANTITY KIND: Ca2+ response (delta ratio), A59H/A265H
MEAS VALUE: 0.02642

ENTRY SMILES: [Cl-].[Cl-].[Zn+2]
QUANTITY KIND: Ca2+ response (delta ratio), A59H/A265H
MEAS VALUE: 0.009782

###

target: mGlu1 K61H/N264H mutant (Rattus norvegicus, UniProt P23385, K61H/N264H); experiment: Fura-2 Ca2+ imaging in HEK293 cells expressing mGlu1 K61H/N264H; details: HEK293 cells, Fura-2; read-out: EC50, Ca2+ response (Δratio)
Sequence (P23385 19-1199 K61H/N264H): as the sequence (P23385 19-1199 P58H/N264H) above, with H40P, K43H counted along it

ENTRY SMILES: O=[N+]([O-])[O-].O=[N+]([O-])[O-].[Pd+2].c1ccc(-c2ccccn2)nc1
EC50 / µM: 2.3

###

# Ca2+ response (delta ratio), K61H/N264H per record follows
target: mGlu1 K61H/N264H mutant (Rattus norvegicus, UniProt P23385, K61H/N264H); construct: expressed in transfected cells; host or cells: HEK293; experiment: Fura-2 Ca2+ imaging in HEK293 cells expressing mGlu1 K61H/N264H; assay type: cell-based; conditions: Fig.1e

ENTRY SMILES: [Cl][Cd][Cl]
Ca2+ response (delta ratio), K61H/N264H: 0.01695
//
ENTRY SMILES: [Cl-].[Cl-].[Zn+2]
Ca2+ response (delta ratio), K61H/N264H: 0.01018
//
ENTRY SMILES: [Cl][Cu][Cl]
Ca2+ response (delta ratio), K61H/N264H: -0.008802
//
ENTRY SMILES: [Cl][Ni][Cl]
Ca2+ response (delta ratio), K61H/N264H: -0.01365
